MEASUREMENT TARGET: human ΔF508-CFTR (Homo sapiens, UniProt P13569, DEL508-508)
Sequence (P13569 with tags, fused parts or gaps DEL508-508): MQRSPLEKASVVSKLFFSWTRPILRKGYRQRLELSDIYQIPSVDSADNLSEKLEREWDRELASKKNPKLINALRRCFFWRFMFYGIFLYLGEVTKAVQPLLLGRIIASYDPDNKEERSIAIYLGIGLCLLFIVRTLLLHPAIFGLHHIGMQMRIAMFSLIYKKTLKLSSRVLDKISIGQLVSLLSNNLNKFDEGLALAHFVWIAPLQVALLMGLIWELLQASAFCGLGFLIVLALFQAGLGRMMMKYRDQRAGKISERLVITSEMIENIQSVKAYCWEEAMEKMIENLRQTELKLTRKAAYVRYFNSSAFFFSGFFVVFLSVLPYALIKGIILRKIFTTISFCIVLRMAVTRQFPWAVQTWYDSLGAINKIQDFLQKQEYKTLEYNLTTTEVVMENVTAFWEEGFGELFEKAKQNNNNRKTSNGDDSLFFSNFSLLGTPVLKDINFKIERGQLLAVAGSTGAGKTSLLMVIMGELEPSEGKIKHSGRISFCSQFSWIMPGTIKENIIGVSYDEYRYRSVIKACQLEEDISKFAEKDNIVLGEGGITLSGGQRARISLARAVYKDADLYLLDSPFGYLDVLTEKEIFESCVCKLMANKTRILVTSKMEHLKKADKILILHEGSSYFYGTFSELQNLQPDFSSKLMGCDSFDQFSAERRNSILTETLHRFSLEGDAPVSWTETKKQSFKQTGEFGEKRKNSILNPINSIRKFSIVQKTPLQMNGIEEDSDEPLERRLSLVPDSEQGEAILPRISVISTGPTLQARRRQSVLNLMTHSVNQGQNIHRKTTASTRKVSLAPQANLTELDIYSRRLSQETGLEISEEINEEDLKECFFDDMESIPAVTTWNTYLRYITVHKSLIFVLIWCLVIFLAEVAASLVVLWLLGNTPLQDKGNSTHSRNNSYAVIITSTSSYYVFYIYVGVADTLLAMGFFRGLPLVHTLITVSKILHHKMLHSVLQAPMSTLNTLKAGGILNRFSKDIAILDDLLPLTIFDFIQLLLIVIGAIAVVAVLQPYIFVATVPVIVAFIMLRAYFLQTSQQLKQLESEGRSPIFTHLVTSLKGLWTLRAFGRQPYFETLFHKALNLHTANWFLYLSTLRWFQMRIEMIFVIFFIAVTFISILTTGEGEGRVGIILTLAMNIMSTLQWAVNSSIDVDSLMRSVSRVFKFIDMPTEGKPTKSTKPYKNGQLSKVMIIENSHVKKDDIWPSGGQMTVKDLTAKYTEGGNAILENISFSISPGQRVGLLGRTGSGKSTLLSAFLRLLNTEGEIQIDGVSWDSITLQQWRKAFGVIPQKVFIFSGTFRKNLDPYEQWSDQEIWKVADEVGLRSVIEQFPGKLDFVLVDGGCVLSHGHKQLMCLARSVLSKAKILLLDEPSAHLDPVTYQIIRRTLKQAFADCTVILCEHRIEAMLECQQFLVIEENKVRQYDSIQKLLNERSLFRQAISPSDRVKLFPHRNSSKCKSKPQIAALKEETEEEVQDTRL
MEASUREMENT DESCRIPTION: CFTR-YFP High Throughput Assay (YFP halide flux in FRT cells)
RUN PARAMETERS: FRT cells expressing human ΔF508-CFTR and YFP; forskolin stimulated
pEC50: −log10 of the molar value.
// pEC50 lookup, one value per entry

The following molecules have reported results that may help.
CCN(C(=O)Cn1nc(-c2ccc(C(N)=O)cc2)c2ccc(OC)cc2c1=O)c1ccc2nc(C)oc2c1 [Example 77]	> 5.00
CCN(C(=O)c1nn(C(C)C)c(=O)c2c1c1ccccc1n2C)c1cc(Cl)ccc1C#N [Example 144]	> 5.00
CCN(C(=O)c1nn(-c2ccc(C)cc2)c(=O)c2c1c1ccccc1n2C)c1cccnc1 [Example 108]	> 5.00

May I ask what pEC50 has been recorded for CCc1ccc(N(CC)C(=O)Cn2nc(Cc3cccnc3)c3ccncc3c2=O)cc1 [Example 41] ?
< 4.70
